- Target under test: Cytochrome P450 2C9 (Homo sapiens)
- Test description: Cytochrome P450 Family 2 Subfamily C Member 9 (CYP2C9) small molecule antagonists: luciferase reporter qHTS assay (AID 1671198); also: nearly all actives have a fitted effect of over 50% in size
- Conditions used: P450-Glo CYP2C9 enzyme assay, luciferin luminescence; series mostly up to 53 µM
- From the text: U.S. Tox21 Program National Center for Advancing Translational Sciences [NCATS] U.S. Environmental Protection Agency [EPA] National Institutes of Environmental Health Sciences [NIEHS] National Toxicology Program [NTP] U.S. Food and Drug Administration [FDA] […] The luciferin products formed are detected with a luciferin detection reagent, and the amount of light produced is proportional to CYP activity. […]
Inconclusive results are not listed. Calls of active or inactive are those of the source. Calls follow the shape of the dose curve; as a rule, active = well fitted inhibition curve with a large enough effect in the repeat runs; inconclusive = weak or mixed curves; inactive = no such curve, though single readings can be large or run the other way.
Choose one outcome from this list and give only that: active, inactive

Exam item: // outcome(item) with item = `Nc1c2ccccc2nc2ccccc12`
Marked response: inactive

Exam item: // same read-out, input: `COc1cccc2c1C(=O)c1c(O)c3c(c(O)c1C2=O)C[C@@](O)(C(=O)CO)C[C@@H]3O[C@H]1C[C@H](N)[C@H](O[C@@H]2CCCCO2)[C@H](C)O1`
Marked response: active

Exam item: // same read-out, input: `COCCCC/C(=N\OCCN)c1ccc(C(F)(F)F)cc1`
Marked response: active

Exam item: // same read-out, input: `CCCCCCCCCCCCCCCC[N+](C)(C)CCN(Cc1ccc(OC)cc1)c1ncccn1`
Marked response: active

Exam item: // same read-out, input: `NNc1nc(-c2ccc(N)cc2)cs1`
Marked response: active

Exam item: // same read-out, input: `CCCCCCCC[P+](CCCCCCCC)(CCCCCCCC)CCCCCCCC`
Marked response: active

Exam item: // same read-out, input: CCCCCCCCNC(C)C(O)c1ccc(SC(C)C)cc1 (stereo unspecified)
Marked response: active

Exam item: // same read-out, input: c1cc(C(c2ccc(OCC3CO3)cc2)c2ccc(OCC3CO3)cc2)ccc1OCC1CO1 (stereo unspecified)
Marked response: active

Exam item: // same read-out, input: `Nc1ccc(N)c2ccccc12`
Marked response: active

Exam item: // same read-out, input: `C[C@]12CCC(=O)C=C1CC[C@@H]1[C@@H]2[C@@H](O)C[C@@]2(C)[C@H]1CC[C@]2(O)C(=O)COC(=O)CCC(=O)O`
Marked response: inactive

Exam item: // same read-out, input: `COc1c(C)c2c(c(O)c1C/C=C(\C)CCC(=O)O)C(=O)OC2`
Marked response: inactive

Reference source for all entries: PubChem BioAssay (Tox21)
